test system: SN12C renal; assay: NCI tumour cell line growth inhibition, 48 h
The following molecules are listed with their measured GI50 values.

{"molecule": "CC(=O)N1CCN(C2=Nc3ccccc3CO2)C1=S", "experimentalValue": "> 100 µM"}

INPUT: Enter recorded GI50 with SN12C renal for COc1ccc2c(c1)C(=O)c1c-2n(CCCN)c(=O)c2ccccc12 here.
OUTPUT: < 0.016 µM

INPUT: Provide GI50, system SN12C renal, entry COc1cccc(C2CC(c3cc(OC)c(OC)c(OC)c3)=NN2)c1 (stereo not given)
OUTPUT: 22.7 µM

INPUT: Retrieve GI50 on SN12C renal; query C=C(Cn1c(=O)c2ccccc2c2ccccc21)c1ccc(C(=O)Nc2ccccc2N)cc1
OUTPUT: 11.3 µM

INPUT: Enter measured GI50, system SN12C renal, for the molecule shown: CC1=NN(C(=O)c2ccccc2O)C(=O)/C1=C/c1ccc([N+](=O)[O-])cc1
OUTPUT: 2.06 µM

---

Items are presented alongside their recorded TGI.
tested on: HCT-15 colon; assay: NCI tumour cell line growth inhibition, 48 h

INPUT: Identify measured TGI associated with O=C(CC1=Nc2nnc(-c3nnc4n3C(=O)C(CC(=O)c3cccnc3)=N4)n2C1=O)c1cccnc1
OUTPUT: > 100 µM

INPUT: Please report TGI for the following compound: Cc1ccccc1NC(=S)Nc1ccccn1
OUTPUT: > 100 µM

INPUT: For the compound CC(=O)C1=C(O)C=C2Oc3c(C(=O)/C=C/c4cc(C(F)(F)F)cc(C(F)(F)F)c4)c(O)c(C)c(O)c3[C@]2(C)C1=O , give its reported TGI.
OUTPUT: 2.54 µM

INPUT: Please report TGI for the following compound: Cc1c2cc[nH]c(=O)c2c(C)c2c1[nH]c1cc(OCCN3CCN(C)CC3)ccc12
OUTPUT: 12 µM

INPUT: Output TGI of CCOc1cc2c(cc1O)/C(=N\N)C[C@@H]1[C@@H]2CC[C@]2(C)[C@@H](O)CC[C@@H]12
OUTPUT: 16.8 µM

INPUT: Assign TGI to the following record: COc1cc(/C=C/C(=O)OCC23CC[C@@]4(C(=O)O)CCC(C)[C@H](C)C4C2=CCC2[C@@]4(C)CC[C@H](O)C(C)(C)C4CC[C@]23C)ccc1O (stereo not given in full)
OUTPUT: 56.3 µM

INPUT: Look up and report measured TGI for this entry: O=c1c2ccccc2oc2nc3n(c(=O)c12)CCCS3
OUTPUT: > 100 µM

INPUT: Give reported TGI value for O=C(NCCCCCCCCNC(=O)c1cnc2ccccc2n1)c1cnc2ccccc2n1
OUTPUT: > 100 µM

INPUT: Please give the documented TGI of C=C(C)[C@@]1(O)O[C@H]2C[C@@]3(C)OC(=CC3=O)/C(C)=C\[C@@H]3OC(=O)[C@@]1(C)[C@H]32
OUTPUT: 44 µM

INPUT: Note TGI for the compound shown: Nc1nc(N)c2ncn(CC3CCC(CO)C3)c2n1 (stereo not given)
OUTPUT: > 100 µM

INPUT: Given CCc1nn(CN2CCN(C)CC2)c(=S)n1/N=C\c1ccc(-c2ccc([N+](=O)[O-])cc2)o1 , respond with its TGI.
OUTPUT: > 100 µM

INPUT: State its TGI: Cc1ccc(S(=O)(=O)N/N=C/c2oc(-c3cccc([N+](=O)[O-])c3)c(-c3cccc([N+](=O)[O-])c3)c2[N+](=O)[O-])cc1
OUTPUT: > 100 µM

INPUT: Answer with reported TGI of CC1(C)O[C@H]2Cn3c(c(C#N)c4ccccc43)[C@H]2O1
OUTPUT: > 100 µM

INPUT: Give reported TGI value for CN1C/C(=C\c2cccs2)C2=NC(=S)NC(c3cccs3)C2C1 (stereo not given)
OUTPUT: > 100 µM

INPUT: Quickly give me recorded TGI for O=C(O)c1ccccc1Cc1ccco1
OUTPUT: > 100 µM

INPUT: Give me measured TGI, please, for this compound: COc1cccc([C@H]2CC(=O)c3cc4c(cc3N2)OCO4)c1
OUTPUT: > 100 µM

INPUT: Look up and state reported TGI for O=C(Nc1cccc2ccccc12)Oc1ccccc1C1CCCCC1
OUTPUT: 33.9 µM

INPUT: Specify measured TGI for O=C(COc1ccc(OCC(=O)N2C(=O)CC(=O)N(c3ccccc3)C2=S)cc1)N1C(=O)CC(=O)N(c2ccccc2)C1=S .
OUTPUT: > 100 µM

INPUT: Supply reported TGI belonging to this compound: NNC(=S)N/N=C(\CCCC(=O)NCCc1ccccc1)CC(=O)c1ccccc1
OUTPUT: > 100 µM

INPUT: Supply measured TGI of O=C(c1ccc2ccccc2c1O)N1CCCCC1 in your reply.
OUTPUT: > 100 µM

These entries and their values trace back to PubChem BioAssay (NCI).
